Below, each entry is listed alongside its reported fold change of affinity.
target-under-test: T1, Human CD137 ECD (human)
T1 construct: also called 4-1BB
T1 sequence (chain, as listed by the source limits assumed): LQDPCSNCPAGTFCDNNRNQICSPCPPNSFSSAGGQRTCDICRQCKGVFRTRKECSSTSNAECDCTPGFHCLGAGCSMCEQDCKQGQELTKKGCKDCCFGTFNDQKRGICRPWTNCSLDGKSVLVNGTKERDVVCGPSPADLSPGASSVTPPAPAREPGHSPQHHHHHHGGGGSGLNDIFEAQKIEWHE
method: SPR, vs parent H183/L072
Just the number please, in fold, no unit attached.

binder	units-label	fold change of affinity
dBBDu183H A102S / dBBDu072L (antibody, name in Kabat numbering, V domains shown, as m1, one VH change) VH: QVQLVESGGGLVQPGRSLRLSCAASGFTFSNAWMHWVRQAPGKGLEWVAQIKDKGNAYAAYYAPSVKGRFTISRDDSKNSIYLQMNSLKTEDTAVYYCHYVHYASASTVLPAFGVDSWGQGTTVTVSS VL: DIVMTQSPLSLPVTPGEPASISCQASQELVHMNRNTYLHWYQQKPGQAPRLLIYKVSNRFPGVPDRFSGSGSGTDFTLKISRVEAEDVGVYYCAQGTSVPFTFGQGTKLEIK	fold	0.9
dBBDu183H K64N / dBBDu072L (antibody, name in Kabat numbering, V domains shown, as m1, one VH change) VH: QVQLVESGGGLVQPGRSLRLSCAASGFTFSNAWMHWVRQAPGKGLEWVAQIKDKGNAYAAYYAPSVNGRFTISRDDSKNSIYLQMNSLKTEDTAVYYCHYVHYASASTVLPAFGVDAWGQGTTVTVSS VL: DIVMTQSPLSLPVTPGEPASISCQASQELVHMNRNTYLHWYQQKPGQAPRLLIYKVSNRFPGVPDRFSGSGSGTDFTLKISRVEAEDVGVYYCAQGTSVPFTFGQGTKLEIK	fold	1
dBBDu183H G65V / dBBDu072L (antibody, name in Kabat numbering, V domains shown, as m1, one VH change) VH: QVQLVESGGGLVQPGRSLRLSCAASGFTFSNAWMHWVRQAPGKGLEWVAQIKDKGNAYAAYYAPSVKVRFTISRDDSKNSIYLQMNSLKTEDTAVYYCHYVHYASASTVLPAFGVDAWGQGTTVTVSS VL: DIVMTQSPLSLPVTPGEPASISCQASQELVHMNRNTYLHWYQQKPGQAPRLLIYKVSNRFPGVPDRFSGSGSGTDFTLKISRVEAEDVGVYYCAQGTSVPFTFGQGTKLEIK	fold	1.2
dBBDu183H K64F / dBBDu072L (antibody, name in Kabat numbering, V domains shown, as m1, one VH change) VH: QVQLVESGGGLVQPGRSLRLSCAASGFTFSNAWMHWVRQAPGKGLEWVAQIKDKGNAYAAYYAPSVFGRFTISRDDSKNSIYLQMNSLKTEDTAVYYCHYVHYASASTVLPAFGVDAWGQGTTVTVSS VL: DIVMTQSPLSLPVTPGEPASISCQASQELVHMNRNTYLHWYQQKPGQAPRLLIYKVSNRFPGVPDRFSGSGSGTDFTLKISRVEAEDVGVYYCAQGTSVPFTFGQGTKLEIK	fold	1.1

// recorded fold change of affinity for dBBDu183H S99R / dBBDu072L (antibody, name in Kabat numbering, V domains shown, as m1, one VH change) VH: QVQLVESGGGLVQPGRSLRLSCAASGFTFSNAWMHWVRQAPGKGLEWVAQIKDKGNAYAAYYAPSVKGRFTISRDDSKNSIYLQMNSLKTEDTAVYYCHYVHYARASTVLPAFGVDAWGQGTTVTVSS VL: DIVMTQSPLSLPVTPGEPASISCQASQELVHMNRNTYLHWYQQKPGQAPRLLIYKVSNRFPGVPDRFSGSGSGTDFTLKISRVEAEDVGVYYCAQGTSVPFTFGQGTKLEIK : 1.1
